pIC50 listing for selected compounds.
target: human JAK1 (Homo sapiens); construct: catalytic domain, amino acids 866-1154; catalog number PV4774; assay: JAK1 inhibition assay (polyGT substrate / Ulight-JAK1 peptide); conditions: recombinant human JAK1 catalytic domain; polyGT or Ulight-JAK1 peptide assay
Sequence (P23458 866-1154): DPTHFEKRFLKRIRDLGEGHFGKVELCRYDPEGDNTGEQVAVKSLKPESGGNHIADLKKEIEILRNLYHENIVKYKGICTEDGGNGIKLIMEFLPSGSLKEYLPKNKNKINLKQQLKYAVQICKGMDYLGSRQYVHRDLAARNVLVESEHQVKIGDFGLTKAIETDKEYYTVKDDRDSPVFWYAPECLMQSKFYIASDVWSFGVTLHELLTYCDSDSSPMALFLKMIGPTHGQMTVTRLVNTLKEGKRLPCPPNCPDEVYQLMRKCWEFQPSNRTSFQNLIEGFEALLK
pIC50: −log10 of the molar value.
readout-name: pIC50

INSERT INTO results (compound, test_result) VALUES
  ('CCc1cc(-c2ccc(Cl)s2)ncc1N(C)c1cc2c(cn1)ncn2C', '7.00 to 11.00'),
  ('CCc1cc(C2CN(CC#N)C2)ccc1N(C)c1cc2c(cn1)ncn2C', '7.00 to 11.00'),
  ('CN(c1cc2c(cn1)ncn2C)c1ccc(C2CN(C(=O)N3CCC3)C2)cc1OC(F)F', '6.00 to 6.30'),
  ('CN(c1cc2c(cn1)ncn2C)c1ccccc1Cl', '6.30 to 7.00'),
  ('CCc1cc(CNS(=O)(=O)C(F)F)c(F)cc1N(C)c1cc2c(cn1)ncn2C', '7.00 to 11.00'),
  ('CN(c1cc2c(cn1)ncn2C)c1ccc(C2CN(CC(F)F)C2)cc1OC(F)F', '7.00 to 11.00'),
  ('CCc1cc(C#N)c(C(F)(F)F)cc1N(C)c1cc2c(cn1)ncn2C', '< 6.00'),
  ('CCc1c(C(=O)OC)cccc1N(C)c1cc2c(cn1)ncn2C', '< 6.00'),
  ('CCc1ccc(C(=O)NCCOC)cc1N(C)c1cc2c(cn1)ncn2C', '6.30 to 7.00'),
  ('CCc1cc(C2CN(C(=O)C(F)(F)F)C2)ncc1N(C)c1cc2c(cn1)ncn2C', '7.00 to 11.00'),
  ('CCc1cc(-c2ccc(C)s2)ncc1N(C)c1cc2c(cn1)ncn2C', '7.00 to 11.00'),
  ('COCN(Cc1ccc(N(C)c2cc3c(cn2)ncn3C)c(F)c1)S(C)(=O)=O', '6.30 to 7.00'),
  ('CCc1cc(C2=CCN(C(=O)OCC#N)CC2)ccc1N(C)c1cc2c(cn1)ncn2C', '7.00 to 11.00'),
  ('CN(c1cc2c(cn1)ncn2C)c1c(F)cc(C#N)cc1F', '6.00 to 6.30'),
  ('CCN(c1cc2c(cn1)ncn2C)c1ccc(C#N)cc1F', '< 6.00'),
  ('Cc1c(OCc2ccc(Cl)cc2)cccc1N(C)c1cc2c(cn1)ncn2C', '< 6.00'),
  ('CCc1cc(C2=CCN(C(=O)NC3(C)CC3)CC2)ccc1N(C)c1cc2c(cn1)ncn2C', '7.00 to 11.00'),
  ('CCC(=O)N1CCC(c2ccc(N(C)c3cc4c(cn3)ncn4C)c(CC)c2)CC1', '7.00 to 11.00'),
  ('CN(c1cc2c(cn1)ncn2C)c1ccc(-c2cnn(C)c2)cc1OC(F)F', '7.00 to 11.00'),
  ('CCc1cc(C(=O)NC2COC2)ccc1N(C)c1cc2c(cn1)ncn2C', '6.30 to 7.00'),
  ('CCc1cc(C2CCCCC2)ncc1N(C)c1cc2c(cn1)ncn2C', '7.00 to 11.00'),
  ('CN(c1cc2c(cn1)ncn2C)c1ccccc1F', '6.30 to 7.00'),
  ('CCc1cc(-c2cnn(Cc3ccc(Cl)cc3)c2)ccc1N(C)c1cc2c(cn1)ncn2C', '7.00 to 11.00'),
  ('Cc1c(Oc2ccc(C#N)nc2)cccc1N(C)c1cc2c(cn1)ncn2C', '6.30 to 7.00'),
  ('CCc1cc(C2CN(CC#N)C2)ncc1N(C)c1cc2c(cn1)ncn2C', '7.00 to 11.00'),
  ('CCc1cc(N2CC(N)C2)ncc1N(C)c1cc2c(cn1)ncn2C', '6.30 to 7.00'),
  ('CCc1cc(-c2cscn2)ccc1N(C)c1cc2c(cn1)ncn2C', '7.00 to 11.00'),
  ('CCc1cc(C2CCCC2)ncc1N(C)c1cc2c(cn1)ncn2C', '7.00 to 11.00'),
  ('CCc1cc(C(C#N)N2CCN(C(C)=O)CC2)ccc1N(C)c1cc2c(cn1)ncn2C (stereo not drawn)', '7.00 to 11.00'),
  ('CCc1cn(C2(CC#N)CN(C(=O)OC(C)(C)C)C2)nc1N(C)c1cc2c(cn1)ncn2C', '< 6.00'),
  ('CN(c1ccc(/C=C/C#N)cc1)c1cc2c(cn1)ncn2C', '6.30 to 7.00'),
  ('CCc1cc(CNC(=O)C(F)F)ccc1N(C)c1cc2c(cn1)ncn2C', '7.00 to 11.00'),
  ('CCc1cc(CNCC(F)(F)F)ccc1N(C)c1cc2c(cn1)ncn2C', '7.00 to 11.00'),
  ('CN(c1cc2c(cn1)ncn2C)c1ccc(C2CN(S(=O)(=O)N3CCCCC3)C2)cc1OC(F)F', '7.00 to 11.00'),
  ('CCc1ncccc1N(C)c1cc2c(cn1)ncn2C', '< 6.00'),
  ('CCc1cc(C(C#N)N2CCC(C(N)=O)CC2)ccc1N(C)c1cc2c(cn1)ncn2C (stereo not drawn)', '7.00 to 11.00');

* * *

Target: human TYK2 (Homo sapiens, UniProt P29597)
Construct: catalytic domain (amino acids 871-1187; catalog number 08-147)
Sequence (P29597 871-1187): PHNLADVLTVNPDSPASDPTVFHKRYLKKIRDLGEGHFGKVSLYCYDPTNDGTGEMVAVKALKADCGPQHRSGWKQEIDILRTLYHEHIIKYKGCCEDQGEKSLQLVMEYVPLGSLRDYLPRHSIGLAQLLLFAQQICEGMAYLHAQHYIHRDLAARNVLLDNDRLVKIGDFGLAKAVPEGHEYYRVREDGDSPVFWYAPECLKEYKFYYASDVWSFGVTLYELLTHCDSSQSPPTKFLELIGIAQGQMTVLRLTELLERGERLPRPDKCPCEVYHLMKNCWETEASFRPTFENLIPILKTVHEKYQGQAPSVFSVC
Experiment: TYK2 inhibition assay
Conditions: recombinant human TYK2 catalytic domain, polyGT substrate
pIC50: −log10 of the molar value.
readout-name: pIC50

INSERT INTO results (compound, test_result) VALUES
  ('CCc1cc(C(=O)NCCN(C)C)ccc1N(C)c1cc2c(cn1)ncn2C', '< 6.00'),
  ('CCc1cc(C2CN(C(=O)C(F)(F)F)C2)ncc1N(C)c1cc2c(cn1)ncn2C', '6.00 to 6.30'),
  ('CCc1cc(C(C#N)N2CC(F)(F)C2)ccc1N(C)c1cc2c(cn1)ncn2C (stereo not shown)', '7.00 to 11.00'),
  ('CCc1cc(CN(CC#N)S(C)(=O)=O)cc(F)c1N(C)c1cc2c(cn1)ncn2C', '7.00 to 11.00');

* * *

molecular target: human JAK2 (Homo sapiens); construct: catalytic domain (amino acids 808-1132; catalog number PV4210); GST; assay: JAK2 inhibition assay (polyGT substrate / Ulight-JAK1 peptide); conditions: recombinant human JAK2 catalytic domain; polyGT or Ulight-JAK1 peptide assay
Sequence (O60674 808-1132): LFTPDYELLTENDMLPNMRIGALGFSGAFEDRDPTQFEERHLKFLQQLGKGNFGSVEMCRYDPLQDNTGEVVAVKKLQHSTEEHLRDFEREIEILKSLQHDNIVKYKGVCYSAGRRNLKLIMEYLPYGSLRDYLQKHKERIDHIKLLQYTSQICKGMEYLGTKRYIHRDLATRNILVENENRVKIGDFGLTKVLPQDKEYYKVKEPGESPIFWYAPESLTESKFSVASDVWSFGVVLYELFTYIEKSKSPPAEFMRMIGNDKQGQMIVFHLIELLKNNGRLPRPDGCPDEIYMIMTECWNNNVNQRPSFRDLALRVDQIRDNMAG
IC50 listing for selected molecules.
readout-name: IC50

INSERT INTO measurements (molecule, measured_target, test_result) VALUES
  ('CN(c1cc2c(cn1)ncn2C)c1ccc(C2CN(S(=O)(=O)N(C)C)C2)cc1OC(F)F [Compound 369]', 'human JAK2 (Homo sapiens)', '101 to 500 nM'),
  ('CN(c1cc2c(cn1)ncn2C)c1ccc(CN(C)S(C)(=O)=O)cc1F [Compound 358]', 'human JAK2 (Homo sapiens)', '0.01 to 100 nM'),
  ('CCc1cc(CN2CC(C)(C)C2)ccc1N(C)c1cc2c(cn1)ncn2C [Compound 382]', 'human JAK2 (Homo sapiens)', '> 1000 nM'),
  ('CCN(c1cccc(C(O)c2ccccc2)c1)c1cc2c(cn1)ncn2C (stereo not drawn) [Compound 12]', 'human JAK2 (Homo sapiens)', '> 1000 nM'),
  ('CCc1cc(C(C)(C)O)ccc1N(C)c1cc2c(cn1)ncn2C [Compound 103]', 'human JAK2 (Homo sapiens)', '101 to 500 nM'),
  ('CNC(=O)c1ccc(N(C)c2cc3c(cn2)ncn3C)c(C)c1 [Compound 30]', 'human JAK2 (Homo sapiens)', '> 1000 nM'),
  ('CCc1cc(CN2CC3(COC3)C2)ccc1N(C)c1cc2c(cn1)ncn2C [Compound 419]', 'human JAK2 (Homo sapiens)', '> 1000 nM'),
  ('CCc1cc(C2CCN(CC#N)CC2)ncc1N(C)c1cc2c(cn1)ncn2C [Compound 384]', 'human JAK2 (Homo sapiens)', '101 to 500 nM'),
  ('Cc1cc(OCc2ccc(C#N)nc2)ccc1N(C)c1cc2c(cn1)ncn2C [Compound 89]', 'human JAK2 (Homo sapiens)', '> 1000 nM');
